Test system: ragweed
Assay: Test C pre-/postemergence herbicide test
Assay type: in vivo, Ambrosia elatior
Conditions: Postemergence, 31 g ai/ha; scale 0 to 100 (0 no effect, 100 complete control)
Collected Plant response rating, Ragweed values appear next to each entry.
endpoint label: Plant response rating, Ragweed

• O=C1NCC(c2cccc(Br)c2)C1C(=O)Nc1ccc(F)c(F)c1F (stereo not shown) [Compound 310] = 10
• CN1CC(c2cccc(C(F)(F)F)c2)C(C(=O)Nc2cccc(F)c2F)C1=O (stereo not shown) [Compound 305] = 0
• O=C1NCC(c2cccc(OC(F)F)c2)C1C(=O)Nc1cccc(F)c1F (stereo not shown) [Compound 224] = 20
• O=C1NCC(c2ccc(F)c(F)c2)C1C(=O)Nc1ccc(F)c(F)c1F (stereo not shown) [Compound 346] = 0

###

Listed here are compounds together with their documented Plant response rating, Barnyardgrass.
Tested on: barnyardgrass
Assay: Test E preemergence herbicide test
Type: in vivo, Echinochloa crus-galli
Parameters: key: 0 = no effect, 100 = complete control
Settings: 31 g ai/ha
endpoint label: Plant response rating, Barnyardgrass

- O=C1NC[C@H](c2cccc(C(F)(F)F)c2)[C@H]1C(=O)Nc1ccccc1F: 20
- O=C1NC[C@H](c2cccc(C(F)(F)F)c2)[C@H]1C(=O)Nc1cccc(F)c1F: 70
- O=C1NCC(c2ccc(F)c(F)c2)C1C(=O)Nc1cccc(F)c1F (stereo not shown): 0
- O=C1NCC(c2ccc(C(F)(F)F)cc2)C1C(=O)Nc1cccc(F)c1F (racemic): 40

###

System: crabgrass, large
Assay: Test A pre-/postemergence herbicide test
Format: in vivo, Digitaria sanguinalis
Conditions: Postemergence, 1000 g ai/ha; 0 to 100 scale (0 no effect, 100 complete control)
endpoint label: Plant response rating, Crabgrass, Large

- O=C1NCC(c2ccc(F)c(F)c2)C1C(=O)Nc1cccnc1C(F)(F)F (racemic): 90
- O=C1NCC(c2ccc(F)c(F)c2)C1C(=O)Nc1ccccc1Cl (racemic): 90
- C#CCN(C(=O)C1C(=O)NCC1c1ccc(F)c(F)c1)c1ccccc1[N+](=O)[O-] (centres unmarked): 0
- Cc1ccccc1NC(=O)C1C(=O)NCC1c1ccc(F)c(F)c1 (racemic): 90
- Cc1c(F)cccc1NC(=O)C1C(=O)NCC1c1ccc(F)c(F)c1 (racemic): 90

###

Test system: foxtail, green
Test: Test E preemergence herbicide test
Assay type: in vivo, Setaria viridis
Design: key: 0 = no effect, 100 = complete control
Conditions: 62 g ai/ha
endpoint label: Plant response rating, Foxtail, Green

* O=C1NCC(c2ccc(Cl)c(Cl)c2)C1C(=O)Nc1ccccc1F (racemic) | 0
* O=C1NCC(c2ccc(C(F)(F)F)cc2)C1C(=O)Nc1cccc(F)c1F (racemic) | 75
* O=C1NCC(c2ccc(F)c(F)c2)C1C(=O)Nc1cccc(F)c1F (stereo not shown) | 40
* O=C1NCC(c2ccc(OC(F)F)cc2)C1C(=O)Nc1cccc(F)c1F (racemic) | 35

###

Test system: corn
Experiment: Test C pre-/postemergence herbicide test
Format: in vivo, Zea mays
Conditions: Postemergence; 125 g ai/ha; scale 0 to 100 (0 no effect, 100 complete control)
endpoint label: Plant response rating, Corn

• O=C1NCC(c2ccc(F)cc2)C1C(=O)Nc1ccc(F)c(F)c1F (racemic) = 0
• O=C1NC[C@H](c2cccc(C(F)(F)F)c2)[C@H]1C(=O)Nc1ccccc1F = 0
• O=C1NCC(c2ccc(F)c(F)c2)C1C(=O)Nc1cccc(F)c1F (racemic) = 0
• O=C1NCC(c2cc(F)c(F)cc2F)C1C(=O)Nc1cccc(F)c1F (centres unmarked) = 5
• Cc1ccccc1NC(=O)C1C(=O)NCC1c1cccc(C(F)(F)F)c1 (racemic) = 0
• CN1CC(c2cccc(C(F)(F)F)c2)C(C(=O)Nc2cccc(F)c2F)C1=O (centres unmarked) = 40
• O=C1NCC(c2ccc(F)c(Cl)c2)C1C(=O)Nc1ccccc1F (centres unmarked) = 0
• O=C1NCC(c2ccc(C(F)(F)F)cc2)C1C(=O)Nc1cccc(F)c1F (racemic) = 10
